Where do the numbers come from? From patent US9102688B2.

Biological target: UniProt:Q9NP59
Sequence (Q9NP59 whole entry): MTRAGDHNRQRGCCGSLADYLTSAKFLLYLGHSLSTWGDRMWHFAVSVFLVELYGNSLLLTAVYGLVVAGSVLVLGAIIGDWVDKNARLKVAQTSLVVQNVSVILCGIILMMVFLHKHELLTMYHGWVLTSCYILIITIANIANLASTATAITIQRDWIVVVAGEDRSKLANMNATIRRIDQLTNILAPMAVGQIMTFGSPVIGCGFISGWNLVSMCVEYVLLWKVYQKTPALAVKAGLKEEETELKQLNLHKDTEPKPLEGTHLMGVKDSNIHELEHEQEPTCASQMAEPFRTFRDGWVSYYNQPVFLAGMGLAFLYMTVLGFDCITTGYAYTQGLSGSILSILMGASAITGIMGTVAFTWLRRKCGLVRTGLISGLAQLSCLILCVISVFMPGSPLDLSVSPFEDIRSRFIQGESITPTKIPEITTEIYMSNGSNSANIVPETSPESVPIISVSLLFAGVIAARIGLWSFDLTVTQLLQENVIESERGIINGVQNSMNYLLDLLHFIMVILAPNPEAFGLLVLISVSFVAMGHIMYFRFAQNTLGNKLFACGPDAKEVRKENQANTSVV
Assay: ferroportin internalization assay (inhibition of hepcidin-induced internalization of Fpn)
Details: MDCK-FPN-HaloTag cells, 100 nM hepcidin, overnight incubation; concentration range from 0.04 to 40 μM
Method: The hepcidin-antagonistic action of the sulfonaminoquinoline compounds of the present invention was determined by means of the “ferroportin internalization assay” described in the following. Organic compounds of low molecular weight which counteract the biological actions of hepcidin on its receptor, the iron exporter ferroportin (Fpn), were identified on the basis of their ability to inhibit hepcidin-induced internalization of Fpn in living cells. […]
readoutName: IC50 (nM)
Answers are plain numbers, in nM.

CN(C)CCOc1cc2c(c3ncccc13)NS(=O)(=O)c1ccccc1-2 [Example 562] :: 2760
COCCNC(=O)c1ccc2c(c1)-c1cc(Cl)c3cccnc3c1NS2(=O)=O [Example 528] :: 3900
O=S(=O)(Nc1cccc2cccnc12)c1ccccc1 [Example 4, N-Quinolin-8-yl-benzenesulfonamide] :: 4590

Please give IC50, item by item, for the list that follows.
1. O=S(=O)(Nc1cccc2cccnc12)c1ccccn1 [Example 85]
2. COc1ccccc1C1c2ccc3cccnc3c2NS(=O)(=O)N1C (stereo not shown) [Example 384]
3. O=S1(=O)Nc2c(ccc3cccnc23)-c2cc(OC(F)(F)F)ccc21 [Example 333]
4. O=S(=O)(Nc1cc(F)cc2cccnc12)c1ccc(Cl)cc1F [Example 95]

A:
1: 1890; 2: 1870; 3: 1170; 4: 690

Please give IC50, item by item, for the list that follows.
1. O=S(=O)(Nc1cccc2cccnc12)c1cnc2ccccc2c1 [Example 88]
2. O=S(=O)(Nc1ccc(Cl)c2cccnc12)c1ccccc1 [Example 25]
3. COC(=O)c1ccnc2c3c(ccc12)-c1ccccc1S(=O)(=O)N3 [Example 319]
4. CNC(=O)c1ccc2c(c1)-c1ccc3cccnc3c1NS2(=O)=O [Example 522]
5. CN1C(c2ccc(F)c(C(=O)N3CCOCC3)c2)c2ccc3cccnc3c2NS1(=O)=O (stereo not shown) [Example 428]

A:
[2060, 1670, 2940, 13200, 2620]

Please give IC50, item by item, for the list that follows.
1. CNC(=O)c1ccnc2c3c(ccc12)-c1ccccc1S(=O)(=O)N3 [Example 542]
2. O=S(=O)(Nc1cc(F)cc2cccnc12)c1ccccn1 [Example 236]
3. COc1cccc(S(=O)(=O)Nc2cccc3cccnc23)c1 [Example 21]
4. O=S(=O)(Nc1ccc(C(F)(F)F)c2cccnc12)c1ccccn1 [Example 234]
5. COCCNc1ccc2c(c1)-c1cc(Cl)c3cccnc3c1NS2(=O)=O [Example 507]

A:
[4770, 2370, 1500, 460, 1980]

Please give IC50, item by item, for the list that follows.
1. O=S(=O)(Nc1cccc2cccnc12)c1ccccc1C(F)(F)F [Example 43]
2. O=C(OC1CCCC1)c1ccc2c(c1)-c1cc(Cl)c3cccnc3c1NS2(=O)=O [Example 533]

A:
1: 419; 2: 990
